Assay: self-splicing fitness, log relative to wild type (ln ratio); higher = more splicing; Tetrahymena group I intron in knt gene, E. coli kanamycin selection, DiMSum; sequences stand for … in CUCUCU…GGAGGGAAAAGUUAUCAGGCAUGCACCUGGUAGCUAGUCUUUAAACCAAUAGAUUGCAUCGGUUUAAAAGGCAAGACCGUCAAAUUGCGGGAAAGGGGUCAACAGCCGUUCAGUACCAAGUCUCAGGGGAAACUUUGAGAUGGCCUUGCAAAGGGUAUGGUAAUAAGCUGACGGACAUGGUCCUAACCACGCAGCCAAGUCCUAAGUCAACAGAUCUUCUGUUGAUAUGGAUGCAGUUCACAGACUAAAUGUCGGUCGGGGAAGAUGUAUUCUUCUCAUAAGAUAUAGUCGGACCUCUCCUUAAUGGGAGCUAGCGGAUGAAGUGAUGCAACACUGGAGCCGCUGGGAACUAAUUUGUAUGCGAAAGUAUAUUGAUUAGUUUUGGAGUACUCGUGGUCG;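 also: selection with 25 µg/mL kanamycin versus none on LB agar overnight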
Details: 30 °C
Quantity: self-splicing fitness (ln)

- Seq Text: "GCGUAGCAAUAUUACGAAUU"
  Quantitative Readout: -1.52
- Seq Text: "GGGAAGCAAUAUUACGAAUU"
  Quantitative Readout: -0.943
- Seq Text: "UCUUAGCAAUAUUACGGAAU"
  Quantitative Readout: -4.47
- Seq Text: "CGAAAGCAAUAUUACGCGUU"
  Quantitative Readout: -4
- Seq Text: "UACAAGCAAUAUUACGAUGA"
  Quantitative Readout: -0.422
- Seq Text: "AGCAAGCAAUAUUACGGGAG"
  Quantitative Readout: -3.68
- Seq Text: "GGCUAGCAAUAUUACGGUCA"
  Quantitative Readout: -0.918
- Seq Text: "UCUAAGCAAUAUUACGUCAC"
  Quantitative Readout: -2.47

* * *

Assay: self-splicing fitness, log relative to wild type (ln ratio); higher = more splicing; Tetrahymena group I intron in knt gene, E. coli kanamycin selection, DiMSum; sequences stand for … in CUCUCU…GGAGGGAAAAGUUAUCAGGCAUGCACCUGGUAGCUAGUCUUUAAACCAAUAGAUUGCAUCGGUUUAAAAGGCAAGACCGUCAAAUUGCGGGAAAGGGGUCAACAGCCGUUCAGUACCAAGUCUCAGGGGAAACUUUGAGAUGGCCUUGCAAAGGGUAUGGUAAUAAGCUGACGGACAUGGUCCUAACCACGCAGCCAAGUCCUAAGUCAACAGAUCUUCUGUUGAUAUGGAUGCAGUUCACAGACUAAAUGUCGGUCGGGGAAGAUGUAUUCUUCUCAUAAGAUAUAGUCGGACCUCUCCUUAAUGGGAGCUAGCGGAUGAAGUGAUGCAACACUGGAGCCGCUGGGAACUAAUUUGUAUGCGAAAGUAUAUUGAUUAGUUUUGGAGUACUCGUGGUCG
Settings: 30 °C
In this section we review reported self-splicing fitness (ln) values for a set of sequences.

- Seq Text: "UUACAGCAAUAUUACGUCGC"
  self-splicing fitness (ln): -2.92
- Seq Text: "GAAGAGCAAUAUUACGCAGU"
  self-splicing fitness (ln): -2.47
- Seq Text: "AAGGAGCAAUAUUACGGAUU"
  self-splicing fitness (ln): -2.19
- Seq Text: "GUACAGCAAUAUUACGGCGG"
  self-splicing fitness (ln): -2.78
- Seq Text: "UCCUAGCAAUAUUACGUCUG"
  self-splicing fitness (ln): -4.52
- Seq Text: "AUACAGCAAUAUUACGUGGG"
  self-splicing fitness (ln): -3.45
- Seq Text: "UAAGAGCAAUAUUACGAGUU"
  self-splicing fitness (ln): -3.16
- Seq Text: "AGUAAGCAAUAUUACGGUUU"
  self-splicing fitness (ln): -1.45
- Seq Text: "UCACAGCAAUAUUACGGAAC"
  self-splicing fitness (ln): -2.98
- Seq Text: "AGGUAGCAAUAUUACGGCCC"
  self-splicing fitness (ln): -2.77
- Seq Text: "UAGAAGCAAUAUUACGCAUU"
  self-splicing fitness (ln): -2.41
- Seq Text: "UUAAAGCAAUAUUACGUGGG"
  self-splicing fitness (ln): -1.65
- Seq Text: "AUUUAGCAAUAUUACGUUUG"
  self-splicing fitness (ln): -3.78
- Seq Text: "AAUAAGCAAUAUUACGUUUG"
  self-splicing fitness (ln): -3.16
- Seq Text: "AGGUAGCAAUAUUACGGAGG"
  self-splicing fitness (ln): -4.1
- Seq Text: "UUGGAGCAAUAUUACGGUUA"
  self-splicing fitness (ln): -2.08

* * *

Experiment: self-splicing fitness, log relative to wild type (ln ratio); higher = more splicing; Tetrahymena group I intron in knt gene, E. coli kanamycin selection, DiMSum; sequences stand for … in CUCUCU…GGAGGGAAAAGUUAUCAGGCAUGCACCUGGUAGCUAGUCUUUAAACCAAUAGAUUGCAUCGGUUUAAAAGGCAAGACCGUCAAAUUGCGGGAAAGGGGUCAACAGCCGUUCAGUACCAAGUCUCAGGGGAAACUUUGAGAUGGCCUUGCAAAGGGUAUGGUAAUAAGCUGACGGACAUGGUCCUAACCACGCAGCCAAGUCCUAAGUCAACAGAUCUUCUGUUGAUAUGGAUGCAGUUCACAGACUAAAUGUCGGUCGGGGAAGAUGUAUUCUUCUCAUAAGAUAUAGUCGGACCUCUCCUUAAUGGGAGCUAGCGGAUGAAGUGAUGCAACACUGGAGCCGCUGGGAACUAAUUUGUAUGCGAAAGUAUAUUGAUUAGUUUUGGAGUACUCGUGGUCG
Conditions: 30 °C
In this section we review reported self-splicing fitness (ln) values for a set of sequences.

- Seq Text: "GCAUAGCAAUAUUACGUCGC"
  self-splicing fitness (ln): -1.2
- Seq Text: "GAAUAGCAAUAUUACGAUAC"
  self-splicing fitness (ln): -1.47
- Seq Text: "AUGUAGCAAUAUUACGUUCU"
  self-splicing fitness (ln): -1.05
- Seq Text: "UAGAAGCAAUAUUACGAACG"
  self-splicing fitness (ln): -0.0437
- Seq Text: "CGGCAGCAAUAUUACGUGAA"
  self-splicing fitness (ln): -2.25
- Seq Text: "UAUGAGCAAUAUUACGUUUG"
  self-splicing fitness (ln): -3.93
- Seq Text: "CGUCAGCAAUAUUACGGAAG"
  self-splicing fitness (ln): -0.632
- Seq Text: "CCCGAGCAAUAUUACGUCUG"
  self-splicing fitness (ln): -3.73

* * *

In this section we review reported self-splicing fitness (ln) values for a set of sequences.
Assay: self-splicing fitness, log relative to wild type (ln ratio); higher = more splicing; Tetrahymena group I intron in knt gene, E. coli kanamycin selection, DiMSum; sequences stand for … in CUCUCU…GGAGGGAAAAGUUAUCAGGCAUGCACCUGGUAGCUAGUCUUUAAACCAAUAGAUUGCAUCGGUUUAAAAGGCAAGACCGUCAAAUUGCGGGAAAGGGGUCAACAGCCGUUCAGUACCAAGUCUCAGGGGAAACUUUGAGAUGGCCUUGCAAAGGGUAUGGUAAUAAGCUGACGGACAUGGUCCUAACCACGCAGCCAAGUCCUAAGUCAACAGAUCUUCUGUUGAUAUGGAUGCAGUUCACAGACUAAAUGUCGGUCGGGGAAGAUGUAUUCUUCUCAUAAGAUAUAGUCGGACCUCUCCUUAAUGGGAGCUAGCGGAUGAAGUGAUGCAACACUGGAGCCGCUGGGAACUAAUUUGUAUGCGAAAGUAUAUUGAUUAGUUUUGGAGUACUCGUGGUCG
Conditions: 37 °C

- Seq Text: "GCUAAGCAAUAUUACGACAA"
  self-splicing fitness (ln): -2.5
- Seq Text: "UGCGAGCAAUAUUACGGUCU"
  self-splicing fitness (ln): -1.45
- Seq Text: "CGUGAGCAAUAUUACGACAA"
  self-splicing fitness (ln): -3.33
- Seq Text: "GUCAAGCAAUAUUACGGCAU"
  self-splicing fitness (ln): -0.119
- Seq Text: "UGGUAGCAAUAUUACGGGGA"
  self-splicing fitness (ln): -2.18
- Seq Text: "GCUCAGCAAUAUUACGUCUU"
  self-splicing fitness (ln): -0.252
- Seq Text: "AUGUAGCAAUAUUACGAAUG"
  self-splicing fitness (ln): -2.37
- Seq Text: "UACGAGCAAUAUUACGAGAU"
  self-splicing fitness (ln): -2.99

* * *

Experiment: self-splicing fitness, log relative to wild type (ln ratio); higher = more splicing; Tetrahymena group I intron in knt gene, E. coli kanamycin selection, DiMSum; sequences stand for … in CUCUCU…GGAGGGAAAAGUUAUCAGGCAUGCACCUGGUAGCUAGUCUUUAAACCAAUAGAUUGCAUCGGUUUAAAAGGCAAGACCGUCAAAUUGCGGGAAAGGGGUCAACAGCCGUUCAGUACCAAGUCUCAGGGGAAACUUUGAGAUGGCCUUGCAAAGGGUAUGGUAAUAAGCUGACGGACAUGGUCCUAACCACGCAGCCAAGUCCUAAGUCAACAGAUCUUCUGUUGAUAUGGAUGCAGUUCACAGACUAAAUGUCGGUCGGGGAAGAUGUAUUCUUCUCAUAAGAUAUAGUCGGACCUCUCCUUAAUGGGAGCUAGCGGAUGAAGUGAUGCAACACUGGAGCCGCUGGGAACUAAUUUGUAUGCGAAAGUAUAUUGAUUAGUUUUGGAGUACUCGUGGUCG
Conditions: 30 °C
In this section we review reported self-splicing fitness (ln) values for a set of sequences.

- Seq Text: "CUGCAGCAAUAUUACGUACU"
  self-splicing fitness (ln): -2.89
- Seq Text: "UCGCAGCAAUAUUACGCUUC"
  self-splicing fitness (ln): -1.8
- Seq Text: "AGCUAGCAAUAUUACGUGUU"
  self-splicing fitness (ln): -1.86
- Seq Text: "UCGGAGCAAUAUUACGCGCA"
  self-splicing fitness (ln): -0.975
- Seq Text: "AUGAAGCAAUAUUACGACUC"
  self-splicing fitness (ln): 0.055
- Seq Text: "UCCCAGCAAUAUUACGAACA"
  self-splicing fitness (ln): -1.51
- Seq Text: "UGUUAGCAAUAUUACGAGCU"
  self-splicing fitness (ln): -0.427
- Seq Text: "UUUGAGCAAUAUUACGACUG"
  self-splicing fitness (ln): -2.39
- Seq Text: "CAGAAGCAAUAUUACGGCAG"
  self-splicing fitness (ln): -0.0496
- Seq Text: "UCGAAGCAAUAUUACGCUUC"
  self-splicing fitness (ln): -3.77
- Seq Text: "GUCCAGCAAUAUUACGCUGA"
  self-splicing fitness (ln): -0.534
- Seq Text: "CGGUAGCAAUAUUACGUGCG"
  self-splicing fitness (ln): -1.41
- Seq Text: "CGAUAGCAAUAUUACGAGGU"
  self-splicing fitness (ln): -2.8
- Seq Text: "CUAUAGCAAUAUUACGUAAC"
  self-splicing fitness (ln): -1.97
- Seq Text: "GGCGAGCAAUAUUACGGCCA"
  self-splicing fitness (ln): -1.39
- Seq Text: "CCGCAGCAAUAUUACGCGUA"
  self-splicing fitness (ln): -2.58
